Target: BMX/ETK (Homo sapiens)
Construct: purchased Reaction Biology Corporation
Sequence (P51813 1-675): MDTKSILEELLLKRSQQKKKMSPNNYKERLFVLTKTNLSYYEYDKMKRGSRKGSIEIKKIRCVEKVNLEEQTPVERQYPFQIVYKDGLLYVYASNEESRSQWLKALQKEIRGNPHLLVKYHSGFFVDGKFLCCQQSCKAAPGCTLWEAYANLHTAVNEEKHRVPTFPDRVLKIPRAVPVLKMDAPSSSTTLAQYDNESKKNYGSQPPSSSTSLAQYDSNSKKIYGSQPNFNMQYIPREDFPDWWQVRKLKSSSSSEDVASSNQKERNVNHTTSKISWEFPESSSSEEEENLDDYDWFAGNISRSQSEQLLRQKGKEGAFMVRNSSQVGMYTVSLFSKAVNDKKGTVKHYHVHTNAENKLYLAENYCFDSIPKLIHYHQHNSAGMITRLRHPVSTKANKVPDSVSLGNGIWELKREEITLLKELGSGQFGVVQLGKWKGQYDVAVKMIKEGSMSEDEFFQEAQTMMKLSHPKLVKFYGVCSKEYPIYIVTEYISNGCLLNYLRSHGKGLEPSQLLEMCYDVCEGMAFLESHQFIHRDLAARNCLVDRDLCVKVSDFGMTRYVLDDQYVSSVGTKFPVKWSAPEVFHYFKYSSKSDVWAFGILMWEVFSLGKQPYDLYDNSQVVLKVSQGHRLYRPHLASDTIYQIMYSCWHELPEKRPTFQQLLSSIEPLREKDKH
Assay: BMX/ETK kinase profiling (BTK protocol)
Assay type: biochemical
Conditions: compound 0.3 μM; read-out: BMX/ETK @ 0.3 μM (% Inh)
Exercise: for every item that follows, state its recorded inhibition at 0.3 µM.
A bare number is not enough; add the unit after it.

Illustrative cases are given below, each with its answer.
{"Compound": "Nc1ncnc2c1c(-c1cc(O)cc(F)c1)nn2CCNc1ccccc1 [Compound 1]", "Value Observed": "43.5%"}
{"Compound": "C=CC(=O)N(CCn1nc(-c2cc(O)cc(F)c2)c2c(N)ncnc21)Cc1ccccc1F [Compound 11]", "Value Observed": "93.5%"}
{"Compound": "C=CC(=O)N(CCn1nc(-c2cc(O)cc(F)c2)c2c(N)ncnc21)Cc1ccccc1 [Compound 5]", "Value Observed": "92.5%"}

Give one value of inhibition at 0.3 µM per listed compound.
1. C=CC(=O)N(CCn1nc(-c2cc(O)cc(F)c2)c2c(N)ncnc21)c1ccccc1 [Compound 2]
2. C=CC(=O)N(CCn1nc(-c2cc(O)c(F)c(F)c2)c2c(N)ncnc21)Cc1ccc(Cl)cc1 [Compound 16]
3. C=CC(=O)N(CCn1nc(-c2cc(O)cc(F)c2)c2c(N)ncnc21)Cc1ccc(Cl)cc1 [Compound 12]
4. C=CC(=O)N(CCn1nc(-c2cc(O)cc(F)c2)c2c(N)ncnc21)Cc1ccc(F)cc1 [Compound 10]

1: 98.5%; 2: 97.2%; 3: 94.2%; 4: 93%

----------
Target: PI3Kδ (Homo sapiens)
Construct: purchased Reaction Biology Corporation
Test: PI3Kδ kinase profiling, HTRF PIP3 displacement assay (Reaction Biology)
Type: biochemical
Conditions: compound 1 μM; ATP 10 μM; read-out: PI3Kδ @ 1 μM (% Inh)
From the text: Compounds of the invention were profiled in a 10 dose IC50 panel against BTK and PI3Kδ, both provided by Reaction Biology Corporation. PI3Kδ assay: The PIP3 product is detected by displacement of biotin-PIP3 from an energy transfer complex consisting of Europium labeled anti-GST monoclonal antibody, a GST-tagged pleckstrin homology (PH) domain, biotinylated PIP3 and Streptavidin-Allophycocyanin (APC). […]
Reported Property: inhibition at 1 µM (%)
One number for each entry, in %.

Sample answers from the record:
{"Query Smiles": "Nc1ncnc2c1c(-c1cc(O)cc(F)c1)nn2CCN(Cc1ccccc1)C(=O)C1CC1", "inhibition at 1 µM [%]": 86.1}
{"Query Smiles": "C=CC(=O)N(CCn1nc(-c2cc(O)cc(F)c2)c2c(N)ncnc21)Cc1ccc(F)cc1", "inhibition at 1 µM [%]": 89}
{"Query Smiles": "C=CC(=O)N(CCn1nc(-c2cc(F)cc(OC(C)=O)c2)c2c(N)ncnc21)Cc1ccccc1", "inhibition at 1 µM [%]": 85.2}

Return reported inhibition at 1 µM values for all items listed beneath this line.
1. CCC(=O)N(CCn1nc(-c2cc(O)cc(F)c2)c2c(N)ncnc21)Cc1ccccc1
2. C=CC(=O)N(CCn1nc(-c2cc(O)cc(F)c2)c2c(N)ncnc21)Cc1ccccc1F

[96.3, 82.4]

----------
Give measured inhibition at 0.1 µM for each item. Keep answers brief.
target: BTK (Homo sapiens); construct: purchased Reaction Biology Corporation; assay: BTK kinase profiling, HotSpot radiometric assay (Reaction Biology); format: biochemical; conditions: compound 0.1 μM; ATP 10 μM; read-out: BTK @ 0.1 μM (% Inh)
Sequence (Q06187 whole entry): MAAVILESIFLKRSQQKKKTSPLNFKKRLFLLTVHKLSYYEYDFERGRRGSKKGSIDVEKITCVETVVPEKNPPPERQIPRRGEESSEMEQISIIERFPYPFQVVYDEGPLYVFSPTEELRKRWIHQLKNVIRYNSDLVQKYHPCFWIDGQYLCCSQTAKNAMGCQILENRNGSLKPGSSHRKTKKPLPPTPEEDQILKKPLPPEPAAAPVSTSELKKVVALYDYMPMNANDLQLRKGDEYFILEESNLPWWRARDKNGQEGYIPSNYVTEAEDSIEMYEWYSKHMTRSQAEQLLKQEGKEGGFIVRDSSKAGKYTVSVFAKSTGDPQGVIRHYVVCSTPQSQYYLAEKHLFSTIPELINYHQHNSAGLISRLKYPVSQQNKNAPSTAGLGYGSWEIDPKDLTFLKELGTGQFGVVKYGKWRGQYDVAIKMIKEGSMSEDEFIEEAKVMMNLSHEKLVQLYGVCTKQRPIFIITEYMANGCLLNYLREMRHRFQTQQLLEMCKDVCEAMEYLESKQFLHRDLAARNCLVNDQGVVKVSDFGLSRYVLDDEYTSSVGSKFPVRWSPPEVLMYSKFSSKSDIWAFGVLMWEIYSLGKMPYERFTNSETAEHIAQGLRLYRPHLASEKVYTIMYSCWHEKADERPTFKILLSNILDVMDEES
Report the figure along with its unit, number first.

{"Query Smiles": "C=CC(=O)N(CCn1nc(-c2cc(O)cc(F)c2)c2c(N)ncnc21)Cc1ccccc1", "inhibition at 0.1 µM": "94%"}
{"Query Smiles": "Nc1ncnc2c1c(-c1cc(O)cc(F)c1)nn2CCNCc1ccccc1", "inhibition at 0.1 µM": "14.8%"}
{"Query Smiles": "C=CC(=O)N(CCn1nc(-c2cc(F)c3c(c2)NCCO3)c2c(N)ncnc21)Cc1ccc(Cl)cc1", "inhibition at 0.1 µM": "93.1%"}
{"Query Smiles": "C=CC(=O)N(CCn1nc(-c2cc(O)cc(F)c2)c2c(N)ncnc21)Cc1ccccc1F", "inhibition at 0.1 µM": "93.8%"}
{"Query Smiles": "C=CC(=O)N(CCn1nc(-c2ccc(Cl)c(O)c2)c2c(N)ncnc21)Cc1ccc(Cl)cc1", "inhibition at 0.1 µM": "92.1%"}

Batch request: inhibition at 0.1 µM for each of the following compounds.
1. C=CC(=O)N(CCn1nc(-c2ccc(Cl)c(O)c2)c2c(N)ncnc21)Cc1ccc(OC)cc1
2. Nc1ncnc2c1c(-c1cc(O)c(F)c(F)c1)nn2CCNc1ncccn1
3. CCC(=O)N(CCn1nc(-c2cc(O)cc(F)c2)c2c(N)ncnc21)Cc1ccccc1
4. C=CC(=O)N(CCn1cc(-c2ccc(Cl)c(O)c2)c2c(N)ncnc21)Cc1ccc(F)cc1
5. C=CC(=O)N(CCn1nc(-c2cc(O)cc(F)c2)c2c(N)ncnc21)c1ccccc1
6. C=CC(=O)N(CCn1nc(-c2cc(O)cc(F)c2)c2c(N)ncnc21)Cc1ccc(F)cc1

1. 96.2%
2. 37.1%
3. 19.9%
4. 98.6%
5. 94.1%
6. 95.4%

----------
target: PI3Kδ (Homo sapiens, UniProt O00329); construct: purchased Reaction Biology Corporation; experiment: PI3Kδ kinase profiling, HTRF PIP3 displacement assay (Reaction Biology); assay type: biochemical; conditions: compound 0.1 μM; ATP 10 μM; read-out: PI3Kδ @ 0.1 μM (% Inh)
Sequence (O00329 whole entry): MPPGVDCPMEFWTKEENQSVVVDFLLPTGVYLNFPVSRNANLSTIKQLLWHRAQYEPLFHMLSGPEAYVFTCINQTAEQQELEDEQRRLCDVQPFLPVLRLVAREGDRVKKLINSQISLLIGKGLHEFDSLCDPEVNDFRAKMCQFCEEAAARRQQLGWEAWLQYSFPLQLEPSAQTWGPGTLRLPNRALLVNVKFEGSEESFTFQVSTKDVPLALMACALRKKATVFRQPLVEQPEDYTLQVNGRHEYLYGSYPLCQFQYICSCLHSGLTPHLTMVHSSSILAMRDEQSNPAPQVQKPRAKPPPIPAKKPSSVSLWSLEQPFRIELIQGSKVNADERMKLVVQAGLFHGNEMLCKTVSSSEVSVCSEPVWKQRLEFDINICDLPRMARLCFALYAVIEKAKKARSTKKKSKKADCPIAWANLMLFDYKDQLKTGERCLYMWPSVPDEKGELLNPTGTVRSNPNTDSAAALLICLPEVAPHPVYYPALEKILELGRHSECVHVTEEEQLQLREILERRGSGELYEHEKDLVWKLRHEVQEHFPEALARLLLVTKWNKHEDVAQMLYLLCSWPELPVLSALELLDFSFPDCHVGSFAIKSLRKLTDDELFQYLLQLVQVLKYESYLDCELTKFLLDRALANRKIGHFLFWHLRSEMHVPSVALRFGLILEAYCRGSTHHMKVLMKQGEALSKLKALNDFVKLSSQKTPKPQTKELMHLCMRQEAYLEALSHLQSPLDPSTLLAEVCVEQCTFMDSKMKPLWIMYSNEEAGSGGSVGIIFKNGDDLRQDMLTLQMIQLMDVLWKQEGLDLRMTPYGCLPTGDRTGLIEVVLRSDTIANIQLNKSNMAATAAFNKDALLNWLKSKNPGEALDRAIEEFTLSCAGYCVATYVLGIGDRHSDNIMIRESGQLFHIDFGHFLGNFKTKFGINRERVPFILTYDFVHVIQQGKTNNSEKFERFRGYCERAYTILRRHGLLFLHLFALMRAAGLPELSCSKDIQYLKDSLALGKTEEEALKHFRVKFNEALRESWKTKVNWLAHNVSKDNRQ
Sequence (P27986 whole entry partner): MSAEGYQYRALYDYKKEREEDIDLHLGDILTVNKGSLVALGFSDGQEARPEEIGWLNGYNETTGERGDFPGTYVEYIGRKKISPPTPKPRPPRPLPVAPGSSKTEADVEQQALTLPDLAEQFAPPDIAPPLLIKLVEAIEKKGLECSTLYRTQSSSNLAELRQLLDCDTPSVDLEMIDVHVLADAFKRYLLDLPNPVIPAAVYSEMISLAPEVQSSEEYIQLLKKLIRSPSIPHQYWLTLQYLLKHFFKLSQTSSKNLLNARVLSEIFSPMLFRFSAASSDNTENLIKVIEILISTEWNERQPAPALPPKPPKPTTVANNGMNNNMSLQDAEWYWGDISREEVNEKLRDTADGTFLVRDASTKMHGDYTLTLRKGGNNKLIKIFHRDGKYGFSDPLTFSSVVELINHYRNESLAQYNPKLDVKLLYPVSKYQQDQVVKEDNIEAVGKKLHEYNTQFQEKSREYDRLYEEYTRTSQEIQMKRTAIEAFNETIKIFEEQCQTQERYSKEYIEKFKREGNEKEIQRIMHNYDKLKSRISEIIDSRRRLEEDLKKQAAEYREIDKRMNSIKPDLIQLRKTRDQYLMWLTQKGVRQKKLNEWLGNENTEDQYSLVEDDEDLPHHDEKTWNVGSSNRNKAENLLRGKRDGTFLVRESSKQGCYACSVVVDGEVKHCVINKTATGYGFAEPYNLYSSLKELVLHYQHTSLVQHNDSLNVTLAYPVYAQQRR
Class field: derived from inhibition at 0.1 µM; ranges LOW (below 40%), MID (40% to below 70%), HIGH (70% or more)

# count of solved cases: 10
{"Query Smiles": "C=CC(=O)N(CCn1nc(-c2cc(F)c3c(c2)NCCO3)c2c(N)ncnc21)Cc1ccc(Cl)cc1", "Label Class": "LOW"}
{"Query Smiles": "C=CC(=O)N(CCn1nc(-c2cc(F)cc(OC(C)=O)c2)c2c(N)ncnc21)Cc1ccccc1", "Label Class": "MID"}
{"Query Smiles": "C=CC(=O)N(CCn1nc(-c2cc(O)cc(F)c2)c2c(N)ncnc21)Cc1ccccc1F", "Label Class": "MID"}
{"Query Smiles": "C=CC(=O)N(CCn1cc(-c2ccc(Cl)c(O)c2)c2c(N)ncnc21)Cc1ccc(F)cc1", "Label Class": "MID"}
{"Query Smiles": "CCC(=O)N(CCn1nc(-c2cc(O)cc(F)c2)c2c(N)ncnc21)Cc1ccccc1", "Label Class": "HIGH"}
{"Query Smiles": "Nc1ncnc2c1c(-c1cc(O)c(F)c(F)c1)nn2CCNc1ncccn1", "Label Class": "MID"}
{"Query Smiles": "C=CC(=O)N(CCn1nc(-c2ccc(Oc3ccccc3)cc2)c2c(N)ncnc21)Cc1ccccc1", "Label Class": "LOW"}
{"Query Smiles": "C=CC(=O)N(CCn1nc(-c2ccc(Cl)c(O)c2)c2c(N)ncnc21)Cc1ccc(Cl)cc1", "Label Class": "LOW"}
{"Query Smiles": "C=CC(=O)N(CCn1nc(-c2cc(O)c(F)c(F)c2)c2c(N)ncnc21)Cc1ccc(Cl)cc1", "Label Class": "HIGH"}
{"Query Smiles": "C=CC(=O)N(CCn1nc(-c2cc(O)cc(F)c2)c2c(N)ncnc21)Cc1ccc(F)cc1", "Label Class": "MID"}

Into which category would you place Nc1ncnc2c1c(-c1cc(O)c(F)c(F)c1)nn2CCNCc1cccnc1 ?
MID

Assign a bin to C=CC(=O)N(CCn1nc(-c2cc(O)cc(F)c2)c2c(N)ncnc21)Cc1ccc(Cl)cc1
MID

Any idea which band C=CC(=O)N(CCn1nc(-c2ccc(Cl)c(O)c2)c2c(N)ncnc21)Cc1ccc(F)cc1 is in?
MID
